Would you kindly list pKd for each of these binders?
Target: WT RBD (SARS-CoV-2 Wuhan-Hu-1 spike receptor binding domain) (SARS-CoV-2 (Wuhan-Hu-1), UniProt P0DTC2)
Experiment: BLI
Details: both partners purified
Lab note: report pKd as minus log10 of the concentration in molar units, number only.

Give the reported value of pKd for this record: C3095 (antibody, V domains shown, source: 293-6E cells, transfected, purified (Protein G Sepharose)) VH: EVQLVETGGGLIQPGGSLRLSCAASEFIVSANYMHWVRQAPGQGLEWVSVIYAGGSTFYADSVKGRFTISRDNSKNSLYLQMNSLRAEDTAVYYCARGLGDYFDFWGQGTLVTVSS VL: DIQMTQSPSTLSASVGDRVTITCRASQSFSDWLAWYQQKPGSAPKLLIYRASSLESGVPSRFSGSGSGTEFTLTISSLQPDDFATYYCQQYNTYPLTFGGGTKVEIK
11.80

Look up pKd of C3108 (antibody, V domains shown, source: 293-6E cells, transfected, purified (Protein G Sepharose)) VH: QVQLQESGPGLVKPSQTLSLTCTVSGGSISSGGYYWNWIRQSPVKGLEWIGYIYYSGGTYYNPSLRSRLTISLDTSNNQFSLRLNSVTAADTAIYYCARDQGAITFGTDAFEIWGQGTMVTVSS VL: DIQMTQSPSSLSASVGDRVTITCQASQDISKYLNWYQQKPGKAPKLLIYGASTLKAGVPSRFSGSGSGTDFTFTISSLQPEDIATYYCQQYDSLPPTFGGGTKVEIK and report it.
9.02

Identify measured pKd associated with B1026 (antibody, V domains shown, source: 293-6E cells, transfected, purified (Protein G Sepharose)) VH: QMQLVQSGPEIKKPGTSVKVSCKASGFTFSNSAVQWVRQARGQRLEWIGWIVVGSGDPNYAQKFQERVTLTRDMSTSTAYMELSSLRSEDTAVYYCATNHCSRTICSDGFDIWGQGTVVTVSS VL: EIVLTQSPVSLSLSPGERATLSCRASQTVRSSYFVWYQQKLGQAPRLLIYSASSRAAGIPDRFSGSGSGTDFTLTISRLEPEDFAVYYCQQYGSSPWTFGQGTKVEIK
7.92

Every entry's value here was drawn from paper PMC9849103.
